These measurements were taken from patent US20260216326A1.

# EXPERIMENTAL_SYSTEM: T1, human TL1A (Fitzgerald #30R-AT070) (human, UniProt O95150 72-251, limits assumed)
# T1 construct: Coated on the ELISA plate at 1 ug/mL; also called TNFSF15
# T1 sequence (looked up): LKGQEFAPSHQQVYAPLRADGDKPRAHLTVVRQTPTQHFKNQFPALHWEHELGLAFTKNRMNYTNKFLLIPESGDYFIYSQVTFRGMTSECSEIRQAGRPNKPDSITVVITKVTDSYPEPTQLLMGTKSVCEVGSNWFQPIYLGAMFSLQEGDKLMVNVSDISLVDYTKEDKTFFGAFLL
# METHOD_NOTES: ELISA titration, coated human TL1A, culture supernatant
Entries and their measured Kd follow.
Form entry: value (nM) — number only.

{"BINDER": "A102 (antibody, human IgG1, V domains shown, human IgG1/kappa (pFuse vectors), culture supernatant) VH: QVQLVQSGAEVKKPGASVKVSCKASGFDIQDTYMHWVKQRPGQGLEWIGRIDPASGHTKYDPKFQVRVTITTDTSTSTAYLELSSLRSEDTAVYYCARSGGLPDVWGQGTTVTVSS VL: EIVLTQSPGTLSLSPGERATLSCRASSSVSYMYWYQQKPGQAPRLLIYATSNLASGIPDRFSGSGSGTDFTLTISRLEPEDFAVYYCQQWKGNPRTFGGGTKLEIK", "READOUT_NUMBER": 0.104}
{"BINDER": "A120 (antibody, human IgG1, V domains shown, human IgG1/kappa (pFuse vectors), culture supernatant) VH: QVQLVQSGAEVKKPGASVKVSCKASGFDIQDTYMHWVRQAPGQGLEWMGRIEPASGHVKYDPKFQGRVTMTRDTSTSTVYMELSSLRSEDTAVYYCARSGGLPDWWGQGTTVTVSS VL: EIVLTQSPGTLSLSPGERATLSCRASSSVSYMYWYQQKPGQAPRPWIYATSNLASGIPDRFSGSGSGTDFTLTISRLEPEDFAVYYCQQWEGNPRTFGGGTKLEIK", "READOUT_NUMBER": 0.085}

// next item, Kd requested
In plain terms, A150 (antibody, human IgG1, V domains shown, human IgG1/kappa (pFuse vectors), culture supernatant) VH: QVQLVQSGAEVKKPGASVKVSCKASGFDIQDTYMHWVRQAPGQGLEWMGRIEPASGHIKYDPKFQGRATMTRDTSTSTVYMELSSLRSEDTAVYYCARSGGLPDWWGQGTTVTVSS VL: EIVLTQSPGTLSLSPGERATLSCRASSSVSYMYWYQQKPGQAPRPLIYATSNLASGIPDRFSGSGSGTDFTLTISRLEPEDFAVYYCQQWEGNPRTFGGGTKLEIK has a documented Kd of 0.059
